// data source = paper PMC12366525

# Test system: PC-3 cells
# method.notes: Prostate cancer cell line growth inhibition assay, PC-3
# Format: cell-based
# measurement.parameters: Homo sapiens, PC-3, 72 h, read-out: PC3 GI50 (AR−)
# Protocol: The PC-3, DU-145, LNCaP, C4–2, and 22Rv1 PC cell line growth inhibition assays have been described previously. On day 1, each PC cell line was harvested, counted, and seeded into two 384-well assay plates, a time zero (T0) and a time 72 h (T72) plate. […] On day 5, 25 μL of the CTG detection reagent was dispensed into the wells of the T72 assay plate using a Matrix electronic multichannel pipette, and the RLU’s were captured on the SpectraMax M5e microtiter plate reader platform. […]
measured.attribute: GI50

1. Cc1nsc(NC(=O)N2CCC(Sc3ccccc3C)CC2)n1 | > 100 µM
2. CC(=O)NCCC(=O)NCc1ccc2[nH]c(-c3ccccc3F)c(C)c2c1 | > 100 µM
3. Cc1c(-c2ccccc2F)[nH]c2ccc(CNC(=O)c3ccc(CO)o3)cc12 | > 100 µM
4. Cc1c(-c2ccccc2F)[nH]c2ccc(CNC(=O)CCc3cnccn3)cc12 | 18.4 µM
5. Cc1nsc(NC(=O)N2CCC(F)CC2)n1 | > 100 µM
6. Cc1c(-c2ccccc2F)[nH]c2ccc(CNC(=O)CCc3cn[nH]c3)cc12 | 32.6 µM
7. Cc1nsc(NC(=O)N2CCC(N3CCCC3=O)CC2)n1 | > 100 µM
8. Cc1c(-c2ccc(F)cc2)[nH]c2ccc(CNC(=O)c3ccc(CO)o3)cc12 | 23.7 µM
9. Cc1ccccc1-c1cc(O)c2c(c1)CN(c1nc(C(N)=O)cs1)CCO2 | 70 µM

====

IC50 listing for selected compounds.
# measured.target: AR-V7 (Homo sapiens, UniProt P10275)
# Construct: expressed in transfected cells; host or cells: PC3 cells stably expressing AR-V7-GFP
# Sequence (P10275 1-644 isoform P10275-3): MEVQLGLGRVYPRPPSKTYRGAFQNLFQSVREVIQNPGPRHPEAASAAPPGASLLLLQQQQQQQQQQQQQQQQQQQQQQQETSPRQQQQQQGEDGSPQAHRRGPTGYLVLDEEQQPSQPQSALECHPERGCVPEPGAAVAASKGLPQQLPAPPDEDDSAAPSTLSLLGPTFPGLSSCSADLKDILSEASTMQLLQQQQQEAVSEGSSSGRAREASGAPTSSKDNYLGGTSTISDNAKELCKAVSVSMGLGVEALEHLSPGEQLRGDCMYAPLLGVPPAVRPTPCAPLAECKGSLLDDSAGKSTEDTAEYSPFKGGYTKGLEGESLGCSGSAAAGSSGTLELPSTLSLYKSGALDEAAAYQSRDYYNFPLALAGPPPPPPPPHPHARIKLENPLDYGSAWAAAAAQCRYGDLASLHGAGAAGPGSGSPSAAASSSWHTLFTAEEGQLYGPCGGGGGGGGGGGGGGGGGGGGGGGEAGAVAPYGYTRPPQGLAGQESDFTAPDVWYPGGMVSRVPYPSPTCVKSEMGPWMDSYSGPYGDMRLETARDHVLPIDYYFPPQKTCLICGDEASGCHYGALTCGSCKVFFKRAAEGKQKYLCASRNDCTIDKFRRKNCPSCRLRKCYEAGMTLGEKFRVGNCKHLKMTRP
# method.notes: PSA6.1 promoter driven luciferase reporter assay in PC3-AR-V7-GFP cells
# Assay type: cell-based
# measurement.parameters: constitutive, 24 h; read-out: PC-3-ARV7-GFP PSA6.1-Luc Reporter IC50
measured.attribute: IC50 (µM)

1. Cc1c(-c2ccccc2F)[nH]c2ccc(CNC(=O)CCc3cnccn3)cc12 | 8.17
2. Cc1c(-c2ccccc2F)[nH]c2ccc(CNC(=O)c3ccc(CO)o3)cc12 | 43.9
3. Cc1c(-c2ccccc2F)[nH]c2ccc(CNC(=O)CCc3cn[nH]c3)cc12 | 10.7
4. CC(=O)NCCC(=O)NCc1ccc2[nH]c(-c3ccccc3F)c(C)c2c1 | 51.7
5. Cc1ccccc1-c1cc(O)c2c(c1)CN(c1nc(C(N)=O)cs1)CCO2 | 33.5
6. Cc1c(-c2ccc(F)cc2)[nH]c2ccc(CNC(=O)c3ccc(CO)o3)cc12 | 10.1

====

# Tested on: C4–2 cells
# method.notes: Prostate cancer cell line growth inhibition assay, C4–2
# Format: cell-based
# measurement.parameters: C4-2, 72 h; read-out: C4–2 GI50 (AR +)
Consider the following compounds and their measured GI50 readings.
measured.attribute: GI50 (µM)

1. Cc1c(-c2ccc(F)cc2)[nH]c2ccc(CNC(=O)c3ccc(CO)o3)cc12 | 16.8
2. Cc1ccccc1-c1cc(O)c2c(c1)CN(c1nc(C(N)=O)cs1)CCO2 | 31.7
3. Cc1c(-c2ccccc2F)[nH]c2ccc(CNC(=O)CCc3cnccn3)cc12 | 1.92
4. CC(=O)NCCC(=O)NCc1ccc2[nH]c(-c3ccccc3F)c(C)c2c1 | 69.8
5. Cc1c(-c2ccccc2F)[nH]c2ccc(CNC(=O)c3ccc(CO)o3)cc12 | 33
6. Cc1nsc(NC(=O)N2CCC(Sc3ccccc3C)CC2)n1 | 14.1
7. Cc1c(-c2ccccc2F)[nH]c2ccc(CNC(=O)CCc3cn[nH]c3)cc12 | 7.93
